Where do these numbers come from? They come from ChEMBL document CHEMBL4665829.

Assay: Half life in mouse liver microsomes at 1 uM after 60 mins in presence of NADPH by LC-MS analysis
Assay type: ADME, Microsome
Details: 1 h
t1/2 strictly under 40 min means yes (1); at 40 min or over means no (0).

Asked: Quick check: t1/2 of "CN(C)CCNc1cc(/C=C/c2ccncc2)nc2ccc(Cl)cc12" under 40 min?
Given back: yes (1)

Asked: Lab log: compare recorded t1/2 with 40 min; is it strictly lower for "CN1CCN(CCNc2cc(/C=C/c3ccc(F)cc3)nc3ccc(Cl)cc23)CC1" ?
Given back: no (0)

Asked: Is the reported t1/2 for "Fc1ccc(/C=C/c2cc(NCCCCN3CCOCC3)c3cc(Cl)ccc3n2)cc1F" strictly below 40 min?
Given back: yes (1)

Asked: Hi there! Is t1/2 for "CN(C)CCNc1cc(/C=C/c2cccc(F)c2)nc2ccc(Cl)cc12" below 40 min, do you know?
Given back: no (0)

Asked: Does the reported t1/2 of "FC(F)(F)c1ccc(/C=C/c2cc(NCCCCN3CCOCC3)c3cc(Cl)ccc3n2)cc1" stay below 40 min?
Given back: no (0)

Asked: Just wondering, is t1/2 of "Fc1ccc(/C=C/c2cc(NCCCCN3CCOCC3)c3cc(Cl)ccc3n2)cc1" below 40 min?
Given back: yes (1)

Asked: For this compound, is t1/2 lower than 40 min? "CN(C)CCNc1cc(/C=C/c2ccc(F)cc2)nc2ccc(Cl)cc12"
Given back: no (0)

Asked: Is t1/2 strictly under 40 min for the entry "Fc1ccc(/C=C/c2cc(NCc3ccccn3)c3cc(Cl)ccc3n2)cc1" ?
Given back: no (0)

Asked: Please let me know if "Clc1ccc2nc(/C=C/c3ccncc3)cc(NCCCCN3CCOCC3)c2c1" shows t1/2 below 40 min.
Given back: yes (1)

###

Assay: Intrinsic clearance in mouse liver microsomes assessed as parent compound at 1 uM after 60 mins in presence of NADPH by LC-MS analysis
Format: ADME, Microsome
result type: CLH (µL/min/mg)
Give bare numbers, in µL/min/mg.

The following compounds have reported results that may help.
CN1CCN(CCNc2cc(/C=C/c3ccc(F)cc3)nc3ccc(Cl)cc23)CC1	23
Fc1ccc(/C=C/c2cc(NCc3ccccn3)c3cc(Cl)ccc3n2)cc1	21.2
CN(C)CCNc1cc(/C=C/c2cccc(F)c2)nc2ccc(Cl)cc12	32.1
CN(C)CCNc1cc(/C=C/c2ccc(C(F)(F)F)cc2)nc2ccc(Cl)cc12	13.3
CN(C)CCNc1cc(/C=C/c2ccncc2)nc2ccc(Cl)cc12	62.2

I need CLH for every entry listed below, if you could help.
1. CCN(CC)CCCC(C)Nc1cc(/C=C/c2ccc([N+](=O)[O-])cc2)nc2ccc(OC)cc12 (stereo unspecified)
2. Clc1ccc2nc(/C=C/c3ccncc3)cc(NCCCCN3CCOCC3)c2c1
3. FC(F)(F)c1ccc(/C=C/c2cc(NCCCCN3CCOCC3)c3cc(Cl)ccc3n2)cc1
4. CN(C)CCNc1cc(/C=C/c2ccc(F)cc2)nc2ccc(Cl)cc12
5. Fc1ccc(/C=C/c2cc(NCCCCN3CCOCC3)c3cc(Cl)ccc3n2)cc1F
6. Fc1ccc(/C=C/c2cc(NCCCCN3CCOCC3)c3cc(Cl)ccc3n2)cc1

Given back:
1: 33.4; 2: 96.2; 3: 21.4; 4: 25.1; 5: 53.7; 6: 62.4

###

Test: Half life in mouse liver microsomes after 60 mins in presence of NADPH by LC-MS analysis
Type: ADME, Microsome
result type: half-life (min)
Numbers only, in min.

Asked: For the compound CCN(CC)CCCC(C)Nc1cc(/C=C/c2ccc([N+](=O)[O-])cc2)nc2ccc(OC)cc12 (stereo unspecified) , report half-life.
Given back: 56.2

###

Experiment: Stability of compound in mouse liver microsomes assessed as parent compound remaining after 60 mins in presence of NADPH by LC-MS analysis
Format: ADME, Microsome
Details: read-out: Stabilty
result type: remaining at 1 h (%)
One number for each entry, in %.

Asked: Input CCN(CC)CCCC(C)Nc1cc(/C=C/c2ccc([N+](=O)[O-])cc2)nc2ccc(OC)cc12 (stereo unspecified) , output reported remaining at 1 h.
Given back: 47.8

###

Field: Stabilty. Provide a value for each of the compounds that follow.
Assay: Stability of compound in mouse liver microsomes assessed as parent compound remaining at 1 uM after 60 mins in presence of NADPH by LC-MS analysis
Type: ADME, Microsome
Details: 1 h
One number for each entry, in %.

Here's what some known entries look like.
Fc1ccc(/C=C/c2cc(NCCCCN3CCOCC3)c3cc(Cl)ccc3n2)cc1F	19.9
Fc1ccc(/C=C/c2cc(NCCCCN3CCOCC3)c3cc(Cl)ccc3n2)cc1	15.4

Lab note: each compound below needs its Stabilty filled in.
1. CN1CCN(CCNc2cc(/C=C/c3ccc(F)cc3)nc3ccc(Cl)cc23)CC1
2. CN(C)CCNc1cc(/C=C/c2cccc(F)c2)nc2ccc(Cl)cc12
3. CN(C)CCNc1cc(/C=C/c2ccncc2)nc2ccc(Cl)cc12
4. FC(F)(F)c1ccc(/C=C/c2cc(NCCCCN3CCOCC3)c3cc(Cl)ccc3n2)cc1
5. Clc1ccc2nc(/C=C/c3ccncc3)cc(NCCCCN3CCOCC3)c2c1
6. Fc1ccc(/C=C/c2cc(NCc3ccccn3)c3cc(Cl)ccc3n2)cc1
7. CN(C)CCNc1cc(/C=C/c2ccc(F)cc2)nc2ccc(Cl)cc12

Given back:
50.2
38.2
15.5
52.7
5.6
52.9
47.1

I would be grateful if you could provide Stabilty for each of the following entries.
1. CN(C)CCNc1cc(/C=C/c2ccc(C(F)(F)F)cc2)nc2ccc(Cl)cc12
2. CCN(CC)CCCC(C)Nc1cc(/C=C/c2ccc([N+](=O)[O-])cc2)nc2ccc(OC)cc12 (stereo unspecified)

Given back:
[67.1, 36.7]

###

Assignment: determine reported selectivity ratio for the given compounds.
Experiment: Selectivity index, ratio of EC50 for cytotoxicity against human HepG2 cells to antiplasmodial activity against chloroquine-resistant Plasmodium falciparum Dd2
Type: toxicity, cell-based
Conditions: read-out: Ratio EC50
Answers are plain numbers.

Fc1ccc(/C=C/c2cc(NCCCCN3CCOCC3)c3cc(Cl)ccc3n2)cc1	1480

Below is a list of compounds. For each, state its recorded selectivity ratio.
1. CN1CCN(CCNc2cc(/C=C/c3ccc(F)cc3)nc3ccc(Cl)cc23)CC1
2. CN(C)CCNc1cc(/C=C/c2ccc(F)cc2)nc2ccc(Cl)cc12
3. FC(F)(F)c1ccc(/C=C/c2cc(NCCCCN3CCOCC3)c3cc(Cl)ccc3n2)cc1
4. CN(C)CCNc1cc(/C=C/c2ccccc2F)nc2ccc(Cl)cc12
5. CN(C)CCNc1cc(/C=C/c2ccc(C(F)(F)F)cc2)nc2ccc(Cl)cc12

Given back:
[209, 1110, 332, 186, 1030]

Asked: Return selectivity ratio for the following compound: "Fc1ccc(/C=C/c2cc(NCCN3CCOCC3)c3cc(Cl)ccc3n2)cc1"
Given back: 711
